- Tested on: HCT-116
- Method description: Growth inhibition in HCT116 cells assessed as inhibition of [3H]thymidine incorporation
- Type: functional, cell-based
- Study conditions: Homo sapiens
Non-standard residues stand in square brackets, D forms with d. Residues, ends and D or L forms follow the SMILES beside them. Cha = N[C@@H](CC1CCCCC1)C(=O)O; dNMeV = CN[C@@H](C(=O)O)C(C)C
I'd be grateful if you could share measured IC50 for these entries.
One number for each entry, in µM.

Molecule: CC(C)C[C@@H]1NC(=O)[C@H](Cc2ccccc2)NC(=O)[C@@H](Cc2ccccc2)NC(=O)[C@H](C(C)C)NC(=O)[C@H](CC(C)C)NC1=O
IC50 [µM]: 200
//
Molecule: CC(C)C[C@@H]1NC(=O)[C@H](Cc2ccccc2)NC(=O)[C@H](CC(C)C)NC(=O)[C@@H](C(C)C)N(C)C(=O)[C@H](CC2CCCCC2)NC1=O (cyclo([Cha][dNMeV]LFL))
IC50 [µM]: 2
//
Molecule: O=c1[nH]cc(F)c(=O)[nH]1
IC50 [µM]: 300

For the next question, use this molecule.
Q: Record CC(C)C[C@@H]1NC(=O)[C@@H](CC(C)C)N(C)C(=O)[C@H](Cc2ccccc2)NC(=O)[C@H](C(C)C)NC(=O)[C@H](C(C)C)NC1=O : what is its IC50 with HCT-116?
Result: 2
